All values here come from paper PMC3692398.

# system_name: hVMAT2 (Homo sapiens)
# Sequence (Q05940 whole entry): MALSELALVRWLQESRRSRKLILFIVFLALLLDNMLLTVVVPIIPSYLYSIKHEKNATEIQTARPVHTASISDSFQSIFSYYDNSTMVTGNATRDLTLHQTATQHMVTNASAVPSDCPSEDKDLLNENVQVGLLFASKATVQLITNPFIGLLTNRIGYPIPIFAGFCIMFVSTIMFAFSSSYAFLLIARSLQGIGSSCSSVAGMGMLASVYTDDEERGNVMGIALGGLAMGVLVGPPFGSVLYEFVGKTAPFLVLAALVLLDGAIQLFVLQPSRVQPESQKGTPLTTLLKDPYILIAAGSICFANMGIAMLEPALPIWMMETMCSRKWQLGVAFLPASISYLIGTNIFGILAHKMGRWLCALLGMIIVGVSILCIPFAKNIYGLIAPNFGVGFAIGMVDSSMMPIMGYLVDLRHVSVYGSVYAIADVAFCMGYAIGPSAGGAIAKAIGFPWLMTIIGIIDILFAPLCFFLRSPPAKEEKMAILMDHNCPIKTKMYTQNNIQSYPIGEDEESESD
# assay_method_text: Inhibition of [3H]DHTB binding, HEK-hVMAT2 membranes
# details: read-out: Inhibition of [3H]DHTB binding Ki ± sem, hVMAT2
What log10 Ki was measured for each of the following?
Please interpret these as log10 of Ki where Ki is in µM.

Go through the items and report each one's log10 Ki.
1. CNC(C)Cc1ccc2c(c1)OCO2 (centres unmarked) [MDMA, 3,4-methylenedioxymethylamphetamine, reference compound]
2. CCC1(O)CC2c3cc(OC)c(OC)cc3CCN2CC1CC(C)C (centres unmarked) [RO4-1284, reference compound]
3. CCC(NC)C(=O)c1ccc2c(c1)OCO2 (centres unmarked) [Butylone]
4. CCCC(C(=O)c1ccc2ccccc2c1)N1CCCC1 (centres unmarked) [Naphyrone, naphthylpyrovalerone]
5. CCCC(C(=O)c1ccc2c(c1)OCO2)N1CCCC1 (centres unmarked) [MDPV, 3,4-methylenedioxypyrovalerone]

Response given:
[2.82, -0.82, 2.86, 2.08, 3.00]

###

# system_name: UniProtKB P23975
# assay_method_text: cell-based
# Type: cell-based
# details: [125I]RTI-55 Ki / [3H]NE uptake IC50
measured_endpoint: ratio of binding Ki to uptake IC50, hNET
Answers are plain numbers.

>  <molecule>
CCC(NC)C(=O)c1ccc2c(c1)OCO2 (centres unmarked)

>  <ratio of binding Ki to uptake IC50, hNET>
7.5

$$$$
>  <molecule>
CNC(C)C(=O)c1ccccc1 (centres unmarked) [Methcathinone, methcathinone, reference compound]

>  <ratio of binding Ki to uptake IC50, hNET>
144

$$$$
>  <molecule>
CNC(C)C(=O)c1ccc2c(c1)OCO2 (centres unmarked)

>  <ratio of binding Ki to uptake IC50, hNET>
71

$$$$

Switching to the query record.
Challenge: Report measured ratio of binding Ki to uptake IC50, hNET; entry is CNC(C)C(=O)c1ccc(F)cc1 (centres unmarked)
Response given: 276

###

# system_name: hNET (Homo sapiens)
# Sequence (P23975 whole entry): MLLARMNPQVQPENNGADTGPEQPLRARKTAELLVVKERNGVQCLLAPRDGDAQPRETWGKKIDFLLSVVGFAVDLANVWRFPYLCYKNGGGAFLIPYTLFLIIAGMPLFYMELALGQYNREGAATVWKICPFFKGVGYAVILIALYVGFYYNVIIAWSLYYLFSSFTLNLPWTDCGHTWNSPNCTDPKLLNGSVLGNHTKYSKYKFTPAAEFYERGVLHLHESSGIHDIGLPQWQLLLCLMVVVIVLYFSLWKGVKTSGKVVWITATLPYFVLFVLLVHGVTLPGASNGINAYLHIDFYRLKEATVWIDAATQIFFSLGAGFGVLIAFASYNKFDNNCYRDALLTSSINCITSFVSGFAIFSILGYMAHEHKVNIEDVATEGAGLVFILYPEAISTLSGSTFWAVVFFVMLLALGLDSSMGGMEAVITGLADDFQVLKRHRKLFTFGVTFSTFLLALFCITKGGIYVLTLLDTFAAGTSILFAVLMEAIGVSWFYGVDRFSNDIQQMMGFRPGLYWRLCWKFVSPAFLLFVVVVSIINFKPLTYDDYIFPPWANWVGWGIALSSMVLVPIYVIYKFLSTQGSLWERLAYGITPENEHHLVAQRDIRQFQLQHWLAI
# assay_method_text: cell-based
# Format: cell-based
What pIC50 was measured for each of the following?
One number for each entry, as −log10 of the molar value.

# count of solved cases: 3
>  <molecule>
CN[C@@H](C)Cc1ccccc1 [METH, (+)methamphetamine, reference compound]

>  <quantitative_readout>
7.59

$$$$
>  <molecule>
OC1(c2ccc(Cl)cc2)c2ccccc2C2=NCCN21 (stereo not shown) [Mazindol, reference compound]

>  <quantitative_readout>
8.73

$$$$
>  <molecule>
CNC(C)C(=O)c1ccc2c(c1)OCO2 (stereo not shown) [Methylone, 3,4-methylenedioxy-N-methylcathinone]

>  <quantitative_readout>
6.63

$$$$

Switching to the query record.
Challenge: Report measured pIC50; entry is CNC(C)C(=O)c1ccc(C)cc1 (stereo not shown) [Mephedrone, 4-methyl-N-methylcathinone]
Response given: 7.27

###

# system_name: UniProt Q01959
# Sequence (Q01959 whole entry): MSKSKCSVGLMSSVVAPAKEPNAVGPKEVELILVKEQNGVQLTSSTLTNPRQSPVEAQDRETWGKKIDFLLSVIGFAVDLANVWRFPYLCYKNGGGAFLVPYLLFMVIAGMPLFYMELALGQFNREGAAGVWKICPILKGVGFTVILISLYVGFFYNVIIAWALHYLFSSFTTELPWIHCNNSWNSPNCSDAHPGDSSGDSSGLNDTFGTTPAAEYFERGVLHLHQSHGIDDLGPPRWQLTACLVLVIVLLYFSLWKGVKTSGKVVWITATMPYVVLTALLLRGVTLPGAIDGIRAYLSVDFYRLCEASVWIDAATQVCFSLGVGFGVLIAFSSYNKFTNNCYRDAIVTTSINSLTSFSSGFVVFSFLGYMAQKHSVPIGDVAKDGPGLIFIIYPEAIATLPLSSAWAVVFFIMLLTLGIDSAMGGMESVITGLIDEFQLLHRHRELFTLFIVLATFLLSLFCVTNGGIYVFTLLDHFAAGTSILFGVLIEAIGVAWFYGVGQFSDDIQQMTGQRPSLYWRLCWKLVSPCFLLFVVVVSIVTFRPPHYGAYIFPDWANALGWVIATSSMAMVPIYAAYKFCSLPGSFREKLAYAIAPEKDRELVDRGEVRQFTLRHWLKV
# assay_method_text: Inhibition of [3H]DA uptake, intact HEK-hDAT cells
# Type: cell-based
# details: [125I]RTI-55 Ki / [3H]DA uptake IC50
What ratio of binding Ki to uptake IC50, hDAT was measured for each of the following?
Give bare numbers.

# count of solved cases: 4
>  <compound>
CCC(NC)C(=O)c1ccc2c(c1)OCO2 (stereo not shown) [Butylone]

>  <system_name>
UniProt Q01959

>  <quantitative_readout>
8.2

$$$$
>  <compound>
CNC(C)C(=O)c1ccc(F)cc1 (stereo not shown) [4-FMC, 4-fluoromethcathinone]

>  <system_name>
UniProt Q01959

>  <quantitative_readout>
38

$$$$
>  <compound>
CNC(C)C(=O)c1ccc2c(c1)OCO2 (stereo not shown) [Methylone, 3,4-methylenedioxy-N-methylcathinone]

>  <system_name>
UniProt Q01959

>  <quantitative_readout>
15

$$$$
>  <compound>
CN[C@@H](C)Cc1ccccc1 [METH, (+)methamphetamine, reference compound]

>  <system_name>
UniProt Q01959

>  <quantitative_readout>
152

$$$$

Switching to the query record.
Challenge: Report measured ratio of binding Ki to uptake IC50, hDAT; entry is CNC(C)C(=O)c1ccccc1 (stereo not shown) [Methcathinone, methcathinone, reference compound]
Response given: 23
